targetOrSystem: Hexokinase-4 (Homo sapiens, UniProt P35557)
Sequence (P35557 whole entry): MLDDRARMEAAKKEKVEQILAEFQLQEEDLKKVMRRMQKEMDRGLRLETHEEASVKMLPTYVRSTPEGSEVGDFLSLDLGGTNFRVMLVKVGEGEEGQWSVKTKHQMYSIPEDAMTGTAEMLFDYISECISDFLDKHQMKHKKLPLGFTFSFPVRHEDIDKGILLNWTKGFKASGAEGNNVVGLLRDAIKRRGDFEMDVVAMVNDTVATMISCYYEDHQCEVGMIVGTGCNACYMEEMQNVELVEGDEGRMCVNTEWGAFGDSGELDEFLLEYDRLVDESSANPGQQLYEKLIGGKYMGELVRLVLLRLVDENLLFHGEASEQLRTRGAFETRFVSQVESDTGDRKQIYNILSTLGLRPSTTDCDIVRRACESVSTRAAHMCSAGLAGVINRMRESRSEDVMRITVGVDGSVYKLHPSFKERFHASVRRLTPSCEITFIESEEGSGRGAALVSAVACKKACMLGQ
assayDetails: Activation of human glucokinase expressed in Escherichia coli BL21(DE3) coexpressing G6PDH by spectrometry
assayContext: read-out: EC50
Threshold 1000 nM. EC50 below it: MET. EC50 at it or above: NOT MET.

{"compound": "CS(=O)(=O)c1ccc(C(CC2CCOCC2)C(=O)Nc2nc(-c3ccccc3)cs2)cc1 (stereo not given)", "cat": "MET"}
{"compound": "COc1ccc(-c2csc(NC(=O)C(CC3CCOCC3)c3ccc(S(C)(=O)=O)cc3)n2)cc1 (stereo not given)", "cat": "NOT MET"}
{"compound": "CS(=O)(=O)c1ccc(C(CC2CCOCC2)C(=O)Nc2nc(C3CC3)cs2)cc1 (stereo not given)", "cat": "NOT MET"}

Challenge: # check: EC50 < 1000 nM for CS(=O)(=O)c1ccc(C(CC2CCOCC2)C(=O)Nc2nc(-c3ccc(F)cc3)cs2)cc1 (stereo not given)
Response given: NOT MET
